EXPERIMENT SUMMARY: NFAT Signaling Pathway (AID 444);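 further: carbachol stimulus at about its EC50 of 1 µM final; on the % scale 0 is the no-effect control and ±100 the full control effect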
PARTICULARS: Jurkat NFAT-bla M1, carbachol, beta-lactamase ratio, 5 h; at 7.69 µM (top of the series) unless noted
Results filed as inconclusive are left out. Calls of active or inactive are those of the source. The call rests on the fitted dose curve; in most records, active means well fitted curve in either direction with a large enough effect (not every such curve was filed as active); inconclusive means small, poorly fitted or top-dose-only effect, or another doubt; inactive means flat fitted curve, though single readings scatter.
This section presents compounds with their documented activity change, negative = inhibition values.

Worked examples, 8 compounds total:
compound=O=C(O)[C@H]1O[C@H]1C(=O)O result="-1.75% (inactive)"
compound=NS(=O)(=O)c1ccc(NCc2cnc3ccccc3c2)cc1 result="13.4% (inactive)"
compound=N[C@H]1[C@@H](C(=O)O)[C@H]2C=C[C@H]1C2 result="24.6% (inactive)"
compound=O=C(O)Cn1ccnc1[N+](=O)[O-] result="-1.99% (inactive)"
compound=NC(=O)NCCS[C@H]1CCCC[C@@H]1O result="3.5% (inactive)"
compound=O=C(c1ccncc1)N1CCC2(CCCN(c3cccc(-c4ccccc4)c3)C2)CC1 result="-6.09% (inactive)"
compound=NS(=O)(=O)c1ccc(N=C2C(=O)Nc3ccccc32)cc1 result="4.31% (inactive)"
compound=Cc1ccc(N2CCN(CCC(=O)O)CC2)cc1 result="2.05% (inactive)"

Input: Need activity change, negative = inhibition of N[C@@](CCc1ccccc1)(C(=O)O)c1ccccc1 , thanks.
Output: 3.42% (inactive)
